These measurements were taken from the supplement of paper PMC9112550.

# System: Escherichia coli TOP10
# ASSAY COMMENT: shrunken log2 fold change of peptide-encoding DNA abundance (4.5 h post-induction vs induction); higher = less antimicrobial activity (less host growth inhibition)
# TEST SETTINGS: time post-induction: 4.5 h; library: site-saturation at positions 5, 18, 19, 20
// label = y if shrunken log2 fold change is not less than 0.05, otherwise n

Look over these answered cases.
RRIRMRPPRLPRPRPRPRKWPRP y
RRIRQRPPRLPRPRPRPPDGPRP y
RRIRWRPPRLPRPRPRPWQPPRP n
RRIRVRPPRLPRPRPRPQFPPRP n
RRIRRRPPRLPRPRPRPNWFPRP n
RRIRLRPPRLPRPRPRPTPWPRP y
RRIRARPPRLPRPRPRPEEDPRP y
RRIRERPPRLPRPRPRPMTYPRP n
RRIRYRPPRLPRPRPRPDCEPRP n
RRIRNRPPRLPRPRPRPHHEPRP n

input: hey, is shrunken log2 fold change for this one >= 0.05? `RRIRMRPPRLPRPRPRPKNVPRP`
output: n

input: Please check the record `RRIRKRPPRLPRPRPRPQIQPRP` and state if its shrunken log2 fold change is at or above 0.05.
output: y

input: Reported shrunken log2 fold change at or above 0.05? `RRIRDRPPRLPRPRPRPPSCPRP`
output: y

input: Evaluate `RRIRVRPPRLPRPRPRPEGMPRP` : shrunken log2 fold change at minimum 0.05?
output: y

input: Quick check, shrunken log2 fold change >= 0.05? `RRIRPRPPRLPRPRPRPAPAPRP`
output: y

input: Identify whether the reported shrunken log2 fold change of the following sequence is 0.05 or greater: `RRIRERPPRLPRPRPRPFLEPRP`
output: n

input: Exam item: decide whether the reported shrunken log2 fold change for `RRIRLRPPRLPRPRPRPAEWPRP` is at least 0.05.
output: n

input: In plain terms: is recorded shrunken log2 fold change at least 0.05 for `RRIRTRPPRLPRPRPRPQHFPRP` ?
output: n

input: Tell me whether shrunken log2 fold change is at least 0.05 here: `RRIRHRPPRLPRPRPRPMAMPRP`
output: n

input: Test whether the sequence `RRIRLRPPRLPRPRPRPTAQPRP` records shrunken log2 fold change of 0.05 or higher.
output: y

input: Decide: is the reported value of shrunken log2 fold change for `RRIRTRPPRLPRPRPRPYVYPRP` equal to or greater than 0.05?
output: n

input: Say whether `RRIRKRPPRLPRPRPRPLYDPRP` shows shrunken log2 fold change of 0.05 or more.
output: n

input: Test whether the sequence `RRIRRRPPRLPRPRPRPHLMPRP` records shrunken log2 fold change of 0.05 or higher.
output: y

input: Hi team, for `RRIRARPPRLPRPRPRPVWAPRP` , is the recorded shrunken log2 fold change at or above 0.05?
output: y

input: Dear colleague, could you confirm whether `RRIRHRPPRLPRPRPRPHPNPRP` has shrunken log2 fold change at or above 0.05?
output: n

input: Evaluate `RRIRARPPRLPRPRPRPNDTPRP` : shrunken log2 fold change at minimum 0.05?
output: n

input: Identify whether the reported shrunken log2 fold change of the following sequence is 0.05 or greater: `RRIRVRPPRLPRPRPRPECFPRP`
output: y

input: Would you say `RRIRARPPRLPRPRPRPRLYPRP` shows shrunken log2 fold change at minimum 0.05?
output: y

input: Confirm if shrunken log2 fold change reported for the sequence `RRIRTRPPRLPRPRPRPHQHPRP` is 0.05 or above.
output: n

input: Confirm if shrunken log2 fold change reported for the sequence `RRIRERPPRLPRPRPRPFNAPRP` is 0.05 or above.
output: n

input: Can `RRIRKRPPRLPRPRPRPGYRPRP` be said to have shrunken log2 fold change at or above 0.05?
output: y

input: Does the reported shrunken log2 fold change for `RRIRGRPPRLPRPRPRPQFGPRP` fall at or above the 0.05 mark?
output: n

====

Measured shrunken log2 fold change by item
# Tested on: Escherichia coli TOP10
# ASSAY COMMENT: shrunken log2 fold change of peptide-encoding DNA abundance (4.5 h post-induction vs induction); higher = less antimicrobial activity (less host growth inhibition)
# TEST SETTINGS: time post-induction: 4.5 h; library: site-saturation at positions 5, 18, 19, 20
Output spec: single numeric token, no unit.

RRIRRRPPRLPRPRPRPEPLPRP 0.137

input: Output shrunken log2 fold change of `RRIRVRPPRLPRPRPRPIQCPRP`
output: 0.078

input: Give me measured shrunken log2 fold change, please, for this sequence: `RRIRDRPPRLPRPRPRPYDSPRP`
output: -0.0305

====

# System: Escherichia coli TOP10
# ASSAY COMMENT: shrunken log2 fold change of peptide-encoding DNA abundance (4.5 h post-induction vs induction); higher = less antimicrobial activity (less host growth inhibition)
# TEST SETTINGS: time post-induction: 4.5 h; library: site-saturation at positions 5, 18, 19, 20
# shrunken log2 fold change listing for each entry below
Could you keep your reply to the number by itself?

RRIRLRPPRLPRPRPRPMQWPRP 0.0515
RRIRVRPPRLPRPRPRPETNPRP 0.0778
RRIRERPPRLPRPRPRPALHPRP 0.247
RRIRFRPPRLPRPRPRPGMPPRP -0.0207
RRIRIRPPRLPRPRPRPDMDPRP -0.122
RRIRWRPPRLPRPRPRPLRVPRP 0.874
RRIRARPPRLPRPRPRPTCNPRP 0.327
RRIRTRPPRLPRPRPRPPKMPRP 0.18

input: Using the record for `RRIRVRPPRLPRPRPRPSCYPRP` , state its measured shrunken log2 fold change.
output: -0.568

input: Item `RRIRIRPPRLPRPRPRPNNMPRP` : provide shrunken log2 fold change
output: -0.959

====

# Test system: Escherichia coli TOP10
# ASSAY COMMENT: shrunken log2 fold change of peptide-encoding DNA abundance (4.5 h post-induction vs induction); higher = less antimicrobial activity (less host growth inhibition)
# TEST SETTINGS: time post-induction: 4.5 h; library: site-saturation at positions 5, 18, 19, 20
MEASURED QUANTITY: shrunken log2 fold change
Just the number, please, no unit after it.

RRIRWRPPRLPRPRPRPLDTPRP 0.0244
RRIRGRPPRLPRPRPRPWEQPRP 0.724
RRIRWRPPRLPRPRPRPCWTPRP 0.0677
RRIRMRPPRLPRPRPRPCRHPRP -0.0252
RRIRCRPPRLPRPRPRPHGIPRP -0.0487

input: Give the reported value of shrunken log2 fold change for this record: `RRIRFRPPRLPRPRPRPICIPRP`
output: -0.399

input: Complete the entry with shrunken log2 fold change for `RRIRGRPPRLPRPRPRPAKKPRP`
output: 0.00559

====

The following sequences are listed with their measured shrunken log2 fold change values.
# Test system: Escherichia coli TOP10
# ASSAY COMMENT: shrunken log2 fold change of peptide-encoding DNA abundance (4.5 h post-induction vs induction); higher = less antimicrobial activity (less host growth inhibition)
# TEST SETTINGS: time post-induction: 4.5 h; library: site-saturation at positions 5, 18, 19, 20
Please reply with the number alone, leaving off any unit.

RRIRKRPPRLPRPRPRPEWKPRP 0.0315

input: Give reported shrunken log2 fold change for `RRIRKRPPRLPRPRPRPFGLPRP` (Escherichia coli TOP10)
output: -0.0305

input: # return shrunken log2 fold change for `RRIRMRPPRLPRPRPRPFTHPRP` , test system: Escherichia coli TOP10
output: -0.107

input: Report shrunken log2 fold change on Escherichia coli TOP10 for this entry: `RRIRLRPPRLPRPRPRPMITPRP`
output: -0.07

input: Write shrunken log2 fold change of `RRIRCRPPRLPRPRPRPQWSPRP` ; system used: Escherichia coli TOP10
output: -0.169

input: State shrunken log2 fold change on Escherichia coli TOP10. Entry: `RRIRPRPPRLPRPRPRPDHTPRP`
output: 0.0191

input: Tell me its shrunken log2 fold change on Escherichia coli TOP10: `RRIRPRPPRLPRPRPRPEREPRP`
output: 0.49

input: Under Escherichia coli TOP10: report shrunken log2 fold change of `RRIRCRPPRLPRPRPRPQQSPRP` .
output: -0.0144

input: GET shrunken log2 fold change where system = Escherichia coli TOP10 and item = `RRIRERPPRLPRPRPRPCGNPRP`
output: -0.00264

input: # return shrunken log2 fold change for `RRIRCRPPRLPRPRPRPFGFPRP` , test system: Escherichia coli TOP10
output: -0.388

input: Lab note: record shrunken log2 fold change of `RRIRVRPPRLPRPRPRPCHPPRP` tested on Escherichia coli TOP10.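 Note: peptides expressed intracellularly from a pBAD plasmid library in pooled LB shake-flask culture, induced with 0.3% L-arabinose, DNA abundance read by NGS, three biological replicates, DESeq2 with apeglm shrinkage.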
output: -0.0124

input: Recall the reported shrunken log2 fold change of `RRIRNRPPRLPRPRPRPQILPRP` on Escherichia coli TOP10 and write it down.
output: -0.265
